Target: IL17A (Homo sapiens, UniProt Q16552)
Assay: Surface Plasmon Resonance (SPR) analysis of compound interactions with IL17A
Conditions: SPR binding to IL17A
pKd: −log10 of the molar value.

entry_smiles	pKd
O=C1CNC(=O)[C@@H](Cc2ccc(NC(=O)[C@H](Cc3ccccc3Cl)NC(=O)Cc3ccccc3)cc2)NC(=O)CC2(CCCCC2)CC(=O)NCCCCCN1	> 7.00
CC(=O)N[C@@H](Cc1ccccc1Cl)C(=O)Nc1ccc(C[C@H]2NC(=O)CC3(CCCC3)CC(=O)NCCCCNC(=O)CCCNC2=O)cc1	> 7.00
COC(=O)[C@@H]1CCCCNC(=O)CCCNC(=O)[C@@H](Cc2ccc(NC(=O)[C@H](Cc3ccc(-c4ccccc4)cc3)NC(=O)c3ccccc3)cc2)NC(=O)CC2(CCCC2)CC(=O)N1	6.00 to 7.00
CC(=O)N[C@@H](Cc1ccccc1Cl)C(=O)Nc1ccc(C[C@H]2NC(=O)CC3(CCCC3)CC(=O)NCCCCNC(=O)CNC2=O)cc1	> 7.00
CC[C@H](C)[C@H](NC(=O)c1ccccc1)C(=O)Nc1ccc(C[C@H]2NC(=O)CC3(CCCC3)CC(=O)N[C@H](C(=O)OC)CCCCNC(=O)CCCNC2=O)cc1	5.00 to 6.00
O=C1CNC(=O)[C@@H](Cc2ccc(NC(=O)[C@H](Cc3c(F)cccc3F)NC(=O)Cc3ccc(O)cc3)cc2)NC(=O)CC2(CCCC2)CC(=O)NCCCCCN1	6.00 to 7.00
COC(=O)[C@@H]1CCCCNC(=O)CCCNC(=O)[C@@H](Cc2ccc(NC(=O)[C@H](Cc3ccccc3)NC(=O)Cc3ccccc3)cc2)NC(=O)CC2(CCCC2)CC(=O)N1	6.00 to 7.00
O=C1CCCNC(=O)[C@@H](Cc2ccc(NC(=O)[C@H](Cc3ccc(-c4ccccc4)cc3)NC(=O)c3ccccc3)cc2)NC(=O)CC2(CCCC2)CC(=O)N[C@H](C(=O)O)CCCCN1	6.00 to 7.00
COC(=O)[C@@H]1CCCCNC(=O)CCCNC(=O)[C@@H](Cc2ccc(NC(=O)[C@H](Cc3ccc(F)cc3)NC(=O)c3ccccc3)cc2)NC(=O)CC2(CCCC2)CC(=O)N1	6.00 to 7.00
O=C1CNC(=O)[C@@H](Cc2ccc(NC(=O)[C@H](Cc3ccccc3Cl)NC(=O)c3ccc(Cl)cc3)cc2)NC(=O)CC2(CCCC2)CC(=O)NCCCCCN1	> 7.00
O=C1CNC(=O)[C@@H](Cc2ccc(NC(=O)[C@H](Cc3ccc(Cl)c(Cl)c3)NC(=O)Cc3ccccc3)cc2)NC(=O)CC2(CCCC2)CC(=O)OCCCCCN1	6.00 to 7.00

====

Biological target: recombinant human IL17a (binding to its receptor IL17R) (Homo sapiens, UniProt Q16552)
Construct: 177-IR (IL17R/Fc)
Sequence (Q16552 20-155 limits assumed): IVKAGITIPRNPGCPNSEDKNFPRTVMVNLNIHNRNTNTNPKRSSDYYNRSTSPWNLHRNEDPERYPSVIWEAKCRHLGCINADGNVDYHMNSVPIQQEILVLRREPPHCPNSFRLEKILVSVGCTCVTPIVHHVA
Assay: IL-17 competition ELISA I (IL17a coated, IL17R/Fc binding)
pIC50: −log10 of the molar value.
The entries below come with measured pIC50 values attached.
reported_metric: pIC50

>>> df
                               entry_smiles        result
0  CC(C)C[C@H](NC(=O)Cc1ccccc1)C(=O)Nc1ccc(C[C@H]2NC(=O)CC3(CCCC3)CC(=O)NCCCCCNC(=O)CNC2=O)cc1  6.00 to 7.00
1  O=C1CC2(CCCC2)CC(=O)N[C@H](Cc2ccc(NC(=O)[C@H](Cc3ccccc3Cl)NC(=O)Cc3ccc(CO)cc3)cc2)C(=O)NC/C=C/CCCCN1  6.00 to 7.00
2  O=C1CC2(CCCC2)CC(=O)N[C@H](Cc2ccc(NC(=O)[C@@H](NC(=O)Cc3ccc(CO)cc3)C3CCCCC3)cc2)C(=O)N[C@H](Cc2ccccc2)C(=O)NCCCCCN1  6.00 to 7.00
3  CC1(C)CC(=O)NCCCCCNC(=O)CNC(=O)[C@@H](Cc2ccc(NC(=O)[C@@H](NC(=O)Cc3ccc(O)cc3)C3CCCCC3)cc2)NC(=O)C1  6.00 to 7.00
4  O=C1CNC(=O)[C@@H](Cc2ccc(NC(=O)[C@H](Cc3ccccc3)NC(=O)Cc3ccccc3)cc2)NC(=O)CC2(CCCC2)CC(=O)NCCCCCN1        > 7.00
